Biological target: human GPR120 (Homo sapiens)
Construct: Flag (DYKDDDDK) (N); host or cells: HEK293 cells co-expressing Gqi5
Sequence (Q5NUL3 1-361): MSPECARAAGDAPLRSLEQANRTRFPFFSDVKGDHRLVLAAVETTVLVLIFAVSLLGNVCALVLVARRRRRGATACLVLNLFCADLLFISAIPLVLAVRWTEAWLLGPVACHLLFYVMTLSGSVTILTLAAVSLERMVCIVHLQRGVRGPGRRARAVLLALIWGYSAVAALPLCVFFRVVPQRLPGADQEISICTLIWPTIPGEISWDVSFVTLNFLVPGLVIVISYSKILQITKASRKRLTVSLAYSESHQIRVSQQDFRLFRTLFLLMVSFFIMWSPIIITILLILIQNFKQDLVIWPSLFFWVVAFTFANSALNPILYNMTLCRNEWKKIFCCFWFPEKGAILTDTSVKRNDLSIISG
Experiment: Intracellular Ca2+ assay (FLIPR Calcium 4, Flexstation) in human GPR120 stable cell line
Format: cell-based
Settings: % activity at 2.5 μM compared to the maximal activity of the compound of Example 25 at 2.5 μM; HEK293 cells co-expressing Gqi5
Quick list: % Activity (Ex. 25 Reference Compound) per entry.
measured metric: % Activity (Ex. 25 Reference Compound) (%)

1) [2H]C([2H])(C(=O)O)C([2H])([2H])c1ccc(OCc2cc(F)cc3c2OC(C)(C)C3)c(F)c1CC [Example 243]: 155.23
2) CC(Cc1ccc(OCc2cc(Cl)cc3c2OCC3(C)C)cc1)C(=O)O (centres unmarked) [Example 148]: 113.89
3) [2H]C1([2H])c2cc(F)cc(COc3ccc(CC(C)C(=O)O)cc3)c2OC1(C)C (centres unmarked) [Example 145]: 143.69
4) Cc1cc2cccc(COc3ccc4c(c3)CCC4CC(=O)O)c2s1 (centres unmarked) [Example 152]: 83.81
5) CC1(C)Cc2cc(F)cc(COc3ccc4c(CC(=O)O)cc(=O)oc4c3)c2O1 [Example 263]: 5.98
6) CC(Cc1ccc(OCc2cc(OC(F)(F)F)cc3c2OC(C)(C)C3)cc1)C(=O)O (centres unmarked) [Example 124]: 131.64
7) CC1(C)Cc2cc(F)cc(COc3ccc(CCC(=O)O)c(Cl)c3)c2O1 [Example 47]: 111.18
8) CC1(C)Cc2cc(F)cc(COc3ccc4c(CC(=O)O)coc4c3)c2O1 [Example 262]: 137.39
9) Cc1cc(CCC(=O)O)c(C)c(C)c1OCc1cc(F)cc2c1OC(C)(C)C2 [Example 254]: 146.14
10) CC(Cc1ccc(OCc2cc(Cl)cc3c2OC(C)(C)C3=O)c(C(F)(F)F)c1)C(=O)O (centres unmarked) [Example 79]: 3.85
11) CC(C)Oc1ccc(Cl)cc1COc1cc2c(cc1F)C(CC(=O)O)CC2 (centres unmarked) [Example 257]: 124.62
12) CC(Cc1ccc(OCc2c(F)ccc3c2CC(C)(C)O3)cc1)C(=O)O (centres unmarked) [Example 96]: 124.82
13) [2H]C1([2H])c2cc(Cl)cc(COc3ccc(CC(C)C(=O)O)cc3C(F)(F)F)c2OC1(C)C (centres unmarked) [Example 147]: 138.65
14) CC1(C)Cc2cc(F)cc(COc3ccc(C4CC4C(=O)O)cc3)c2O1 (single isomer, unassigned) [Example 131B]: 105.8
15) COc1cc(OCc2cc(F)cc3c2OC(C)(C)C3)ccc1CCC(=O)O [Example 50]: 129.78
16) CC1(C)Cc2cc(F)cc(COc3ccc(CCC(=O)O)c4c3CCC4)c2O1 [Example 63]: 95.03
17) CC1(C)Cc2cc(F)cc(COc3c(F)cc(CC4CC4C(=O)O)cc3F)c2O1 (single isomer, unassigned) [Example 184A]: 95.58

// provenance: patent US8598374B2
